MEASUREMENT_NOTES: Cytotoxicity MTS assay in HepG2 cells
Format: cell-based
ASSAY_SETUP: human
REPORTED_METRIC: IC50

{"MOLECULE": "C/C(=C\\CP(=O)(OCOC(=O)OC(C)C)OCOC(=O)OC(C)C)Cn1cc(C2CC2)nn1 [Compound 11f]", "REPORTED_METRIC": "IC50", "RESULT": "> 100 µM"}
{"MOLECULE": "CCOC(=O)c1cn(C/C(C)=C/CP(=O)(OCOC(=O)OC(C)C)OCOC(=O)OC(C)C)nn1 [Compound 11o]", "REPORTED_METRIC": "IC50", "RESULT": "> 100 µM"}
{"MOLECULE": "CNC(=O)c1cn(C/C(C)=C/CP(=O)(OCOC(=O)OC(C)C)OCOC(=O)OC(C)C)nn1 [Compound 11p]", "REPORTED_METRIC": "IC50", "RESULT": "> 100 µM"}
